Each item that follows carries a reported pKd.
- tested.system: T1, recombinant human IL-6 (human, UniProt P05231 30-212)
- T1 construct: Flowed in solution over the captured antibodies
- T1 sequence (P05231 30-212 limits assumed): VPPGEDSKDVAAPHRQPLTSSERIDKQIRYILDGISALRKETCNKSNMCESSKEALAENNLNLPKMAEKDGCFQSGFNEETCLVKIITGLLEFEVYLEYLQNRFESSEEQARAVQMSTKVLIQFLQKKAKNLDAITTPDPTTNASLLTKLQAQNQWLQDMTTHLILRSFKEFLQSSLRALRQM
- assay.method.text: SPR (Biacore), supernatant IgG on Protein A, 25 C
pKd: −log10 of the molar value.

- binder: "anti-IL-6 antibody, heavy chain M34W, light chain WT (antibody, IgG1, V domains shown, Full IgG1 tested; VL as in m2) VH: EVQLVESGGGLVQPGGSLRLSCAASGFTFSPFAWSWVRQAPGKGLEWVAKISPGGSWTYYSDTVTGRFTFSLDTSKSTAYLQMNSLRAEDTAVYYCARQLWGYYALDIWGQGTLVTVSS VL: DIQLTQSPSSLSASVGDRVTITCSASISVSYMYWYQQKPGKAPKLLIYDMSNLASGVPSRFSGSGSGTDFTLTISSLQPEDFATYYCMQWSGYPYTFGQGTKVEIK"
  pKd: 9.41
- binder: "anti-IL-6 antibody, heavy chain Y103S, light chain WT (antibody, IgG1, V domains shown, Full IgG1 tested; V domains derived as in m2) VH: EVQLVESGGGLVQPGGSLRLSCAASGFTFSPFAMSWVRQAPGKGLEWVAKISPGGSWTYYSDTVTGRFTFSLDTSKSTAYLQMNSLRAEDTAVYYCARQLWGSYALDIWGQGTLVTVSS VL: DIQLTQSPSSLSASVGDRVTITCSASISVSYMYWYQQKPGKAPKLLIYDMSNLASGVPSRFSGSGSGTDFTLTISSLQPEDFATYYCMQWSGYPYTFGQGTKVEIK"
  pKd: 9.37
- binder: "anti-IL-6 antibody, heavy chain F27G, light chain WT (antibody, IgG1, V domains shown, Full IgG1 tested; V domains derived as in m2) VH: EVQLVESGGGLVQPGGSLRLSCAASGGTFSPFAMSWVRQAPGKGLEWVAKISPGGSWTYYSDTVTGRFTFSLDTSKSTAYLQMNSLRAEDTAVYYCARQLWGYYALDIWGQGTLVTVSS VL: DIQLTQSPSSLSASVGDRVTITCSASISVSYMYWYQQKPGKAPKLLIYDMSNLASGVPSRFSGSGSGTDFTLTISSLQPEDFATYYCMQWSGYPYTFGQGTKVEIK"
  pKd: 9.62
- binder: "anti-IL-6 antibody, heavy chain T63E, light chain WT (antibody, IgG1, V domains shown, Full IgG1 tested; V domains derived as in m2) VH: EVQLVESGGGLVQPGGSLRLSCAASGFTFSPFAMSWVRQAPGKGLEWVAKISPGGSWTYYSDEVTGRFTFSLDTSKSTAYLQMNSLRAEDTAVYYCARQLWGYYALDIWGQGTLVTVSS VL: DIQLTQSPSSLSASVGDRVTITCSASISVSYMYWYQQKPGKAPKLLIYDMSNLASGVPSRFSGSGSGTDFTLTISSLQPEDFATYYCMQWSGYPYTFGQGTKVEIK"
  pKd: 9.35

Value source: patent US20240209076A1
